# TEST NAME: Extensive tissue distribution study in CT26 tumor-bearing mice
# Assay type: in vivo, Balb/c mice
# MEASUREMENT CONTEXT: Balb/c, mouse; 75 mg/kg PO; Thymus; read-out: Cmax
# Method: Mice were injected subcutaneously on the right flank with 1x10^6 CT26 cells, a murine colorectal carcinoma cell line from BALB/c mice,obtained from ATCC (Manassas, VA). […] Implantation and tumor growth were monitored twice weekly with a digital caliper. […] For tissue and tumor analysis, samples were homogenized with 3 parts PBS (v/g) and further diluted with control plasma and concentrations determined from calibration curves prepared in control plasma.
VALUE KIND: Cmax (ng/mL)
Value expressed in ng/mL; do not type the unit.

*Q* // query Cmax value for entry C[C@@H]1COCCN1c1cc(C2([S@](C)(=N)=O)CC2)nc(-c2cc[nH]c3nccc2-3)n1 [AZD6738]
*A* 9630

---

# TEST NAME: Extensive tissue distribution study in CT26 tumor-bearing mice
# Format: in vivo, Balb/c mice
# MEASUREMENT CONTEXT: Balb/c, mouse; 75 mg/kg PO; Spinal Cord; 0-1440 min; read-out: AUC0-t (converted)
VALUE KIND: AUC(0-t) (ng·h/mL)
Value expressed in ng·h/mL; do not type the unit.

*Q* // query AUC(0-t) value for entry C[C@@H]1COCCN1c1cc(C2([S@](C)(=N)=O)CC2)nc(-c2cc[nH]c3nccc2-3)n1
*A* 2420

---

# TEST NAME: in vivo
# MEASUREMENT CONTEXT: Balb/c, mouse, po, 7.5 mg/kg
VALUE KIND: Cmax
Answer with the figure and its unit, nothing else.

*Q* // query Cmax value for entry C[C@@H]1COCCN1c1cc(C2([S@](C)(=N)=O)CC2)nc(-c2cc[nH]c3nccc2-3)n1 [AZD6738]
*A* 1460 ng/mL

---

# TEST NAME: in vivo
# MEASUREMENT CONTEXT: Balb/c, mouse, po, 7.5 mg/kg
VALUE KIND: bioavailability
Answer with the figure and its unit, nothing else.

*Q* // query bioavailability value for entry C[C@@H]1COCCN1c1cc(C2([S@](C)(=N)=O)CC2)nc(-c2cc[nH]c3nccc2-3)n1 [AZD6738]
*A* 58.8%

---

# TEST NAME: Extensive tissue distribution study in CT26 tumor-bearing mice
# Type: in vivo, Balb/c mice
# MEASUREMENT CONTEXT: Balb/c, mouse; 75 mg/kg PO; CT26 Tumor
VALUE KIND: AUC(0-inf) (ng·h/mL)
Value expressed in ng·h/mL; do not type the unit.

*Q* // query AUC(0-inf) value for entry C[C@@H]1COCCN1c1cc(C2([S@](C)(=N)=O)CC2)nc(-c2cc[nH]c3nccc2-3)n1
*A* 29600

---

# TEST NAME: Extensive tissue distribution study in CT26 tumor-bearing mice
# Type: in vivo, Balb/c mice
# MEASUREMENT CONTEXT: Balb/c, mouse; 75 mg/kg PO; Spinal Cord
VALUE KIND: AUC(0-inf) (ng·h/mL)
Value expressed in ng·h/mL; do not type the unit.

*Q* // query AUC(0-inf) value for entry C[C@@H]1COCCN1c1cc(C2([S@](C)(=N)=O)CC2)nc(-c2cc[nH]c3nccc2-3)n1
*A* 2450

---

# TEST NAME: Extensive tissue distribution study in CT26 tumor-bearing mice
# Type: in vivo, Balb/c mice
# MEASUREMENT CONTEXT: Balb/c, mouse, non-draining lymph node / plasma, oral, 75 mg/kg, 75 mg/kg PO; Non-draining Lymph Node to plasma AUC; read-out: Partition Coefficient
VALUE KIND: Kp
API note: the answer field is a bare number with no unit suffix.

*Q* // query Kp value for entry C[C@@H]1COCCN1c1cc(C2([S@](C)(=N)=O)CC2)nc(-c2cc[nH]c3nccc2-3)n1
*A* 0.983

Where do the numbers come from? From paper PMC8829872.
